This listing pairs variants with measured self-cleavage.
B1: LINE1-full (parent)
chain: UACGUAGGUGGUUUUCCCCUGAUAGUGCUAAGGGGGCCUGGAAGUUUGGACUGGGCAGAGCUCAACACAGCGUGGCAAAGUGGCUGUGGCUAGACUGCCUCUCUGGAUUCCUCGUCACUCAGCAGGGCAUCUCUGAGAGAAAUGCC

- Variants of: B1
- ASSAY_PROTOCOL: self-cleavage, relative activity (ratio to wild type); higher = more cleavage; in vitro, sequencing; the parent is a self-cleaving ribozyme
ASSAY_READOUT: self-cleavage

{"columns": ["MUTATION", "MEASURED_NUMBER"],
 "data": [
  ["U9C U26A", 1.14],
  ["C38A U115C", 1.14],
  ["C37U U109A", 1.24],
  ["C113U A138G", 1.54],
  ["A57C C61U", 0.05],
  ["U13C A42G", 1.19],
  ["A67G U109A", 0.43],
  ["U108C A129G", 1.57],
  ["A129U U130C", 1.49],
  ["A59U U62A", 0.05],
  ["U115A U130C", 1.62]
]}
